biological target: KRas Q61H mutant (Homo sapiens (Human), UniProt P01116, Q61H); experiment: Ras GTP binding domain inhibition assay; details: 20 μM compound
Sequence (P01116-2 other isoform, or with tags, fused parts or gaps Q61H): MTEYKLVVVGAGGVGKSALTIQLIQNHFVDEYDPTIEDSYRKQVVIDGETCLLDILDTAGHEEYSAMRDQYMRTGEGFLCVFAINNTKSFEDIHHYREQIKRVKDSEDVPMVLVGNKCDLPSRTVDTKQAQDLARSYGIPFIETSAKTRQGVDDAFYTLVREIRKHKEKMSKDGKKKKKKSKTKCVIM
In this section we review reported inhibition at 20 µM values for a set of compounds.

compound="COCCNc1nc(-c2nccn2C)nc2sc(-c3ccccc3)c(-c3ccccc3)c12 [drawing 3568]" meas_value="51 to 75%"
compound=Cc1nc(-c2nccn2C)nc2sc(-c3ccccc3)c(-c3ccccc3)c12 meas_value="1 to 25%"
compound=Cc1nc(-c2cn(C)cn2)nc2sc(-c3ccc(CNC(=O)OC(C)(C)C)cc3)c(-c3ccccc3)c12 meas_value="1 to 25%"
compound=Nc1nc(-c2ccccn2)nc2c(CC3CNC3)csc12 meas_value="51 to 75%"

Tell me measured inhibition at 20 µM for Nc1nc(-c2ccccn2)nc2c(C3CC3)csc12 please.
25 to 50%
